- system: Glycogen synthase kinase-3 (Homo sapiens, UniProt P49840+P49841)
- Format: protein assay
- Description: Inhibition of glycogen synthase kinase-3 (unknown origin)
Item-by-item account of IC50
I only need the number, in µM, no unit after it.

Study these solved cases before continuing.
Query (molecule): Br.CCOC(=O)C/N=C1\NC(c2ccccc2)N(c2ccccc2)S1 (centres undefined) ; field requested: IC50 7.05

Query (molecule): `CC(=O)C1=C(c2cn(C)c3ccccc23)C(=O)NC1=O` ; field requested: IC50 4.47

Query (molecule): Br.Br.c1ccc(C/N=C2\NC(c3ccccc3)N(c3ccccc3)S2)cc1 (centres undefined) ; field requested: IC50 1.28

---
Query (molecule): `Clc1cccc(C2=NC(c3ccccc3)=NN(c3ccccc3)c3ccccc32)c1` ; field requested: IC50 3.38
